# system_name: VLA-4 integrins on human U937 cells (interaction between VCAM-1 and VLA-4) (Homo sapiens, UniProt P05556+P13612)
# Construct: the VLA-4 integrins, are offered in their natural form as surface molecules on human U937 cells; the partner hVCAM-1(1-3)-IgG came from the supernatant of transfected COS cells (ATCC CRL1651)
# Sequence (P13612 34-1032): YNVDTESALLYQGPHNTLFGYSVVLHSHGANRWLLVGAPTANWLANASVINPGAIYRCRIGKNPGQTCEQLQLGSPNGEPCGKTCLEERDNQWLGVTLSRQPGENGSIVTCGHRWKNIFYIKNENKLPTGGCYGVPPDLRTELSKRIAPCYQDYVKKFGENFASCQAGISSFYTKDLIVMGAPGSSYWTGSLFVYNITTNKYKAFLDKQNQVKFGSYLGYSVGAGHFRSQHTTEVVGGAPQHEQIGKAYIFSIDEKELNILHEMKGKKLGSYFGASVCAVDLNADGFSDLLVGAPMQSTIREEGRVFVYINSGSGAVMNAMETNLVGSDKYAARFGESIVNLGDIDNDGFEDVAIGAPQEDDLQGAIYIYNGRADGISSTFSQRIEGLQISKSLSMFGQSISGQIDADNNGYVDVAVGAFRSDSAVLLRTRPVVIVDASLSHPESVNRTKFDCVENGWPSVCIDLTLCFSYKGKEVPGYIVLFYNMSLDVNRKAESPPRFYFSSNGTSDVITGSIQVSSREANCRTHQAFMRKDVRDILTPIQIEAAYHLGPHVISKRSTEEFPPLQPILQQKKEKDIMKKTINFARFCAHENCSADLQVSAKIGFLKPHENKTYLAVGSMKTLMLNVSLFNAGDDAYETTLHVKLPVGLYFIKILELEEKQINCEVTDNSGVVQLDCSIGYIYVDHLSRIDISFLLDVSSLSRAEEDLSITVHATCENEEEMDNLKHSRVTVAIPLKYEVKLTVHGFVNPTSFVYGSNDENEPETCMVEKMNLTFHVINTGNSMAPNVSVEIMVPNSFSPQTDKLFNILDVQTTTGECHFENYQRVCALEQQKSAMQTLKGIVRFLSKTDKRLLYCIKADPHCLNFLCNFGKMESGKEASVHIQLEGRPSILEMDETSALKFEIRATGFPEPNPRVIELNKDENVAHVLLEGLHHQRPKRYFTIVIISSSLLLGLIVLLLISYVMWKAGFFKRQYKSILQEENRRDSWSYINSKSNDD
# Sequence (P05556 21-798): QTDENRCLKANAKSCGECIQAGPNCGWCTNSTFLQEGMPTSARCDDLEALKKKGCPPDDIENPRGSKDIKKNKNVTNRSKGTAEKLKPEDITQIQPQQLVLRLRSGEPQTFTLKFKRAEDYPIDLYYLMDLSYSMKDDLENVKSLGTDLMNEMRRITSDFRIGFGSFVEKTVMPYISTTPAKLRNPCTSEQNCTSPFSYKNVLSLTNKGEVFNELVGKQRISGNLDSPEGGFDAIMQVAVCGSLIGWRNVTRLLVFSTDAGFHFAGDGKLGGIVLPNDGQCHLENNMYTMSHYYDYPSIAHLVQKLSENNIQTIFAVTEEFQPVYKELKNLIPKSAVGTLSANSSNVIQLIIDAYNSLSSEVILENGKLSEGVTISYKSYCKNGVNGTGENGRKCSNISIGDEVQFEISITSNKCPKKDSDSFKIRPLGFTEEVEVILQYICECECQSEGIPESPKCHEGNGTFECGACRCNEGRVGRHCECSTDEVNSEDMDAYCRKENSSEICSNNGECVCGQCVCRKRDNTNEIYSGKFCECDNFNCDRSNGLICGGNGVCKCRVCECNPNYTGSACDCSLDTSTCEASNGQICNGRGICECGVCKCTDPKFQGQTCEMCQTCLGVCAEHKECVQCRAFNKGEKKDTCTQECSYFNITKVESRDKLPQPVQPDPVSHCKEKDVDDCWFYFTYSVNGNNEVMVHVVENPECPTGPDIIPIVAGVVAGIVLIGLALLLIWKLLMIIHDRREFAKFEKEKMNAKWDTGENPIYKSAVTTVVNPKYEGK
# assay_overview: U937/VCAM-1 cell adhesion test (adhesion of U937 cells to hVCAM-1(1-3)-IgG)
# run_conditions: concentration leading to 50% inhibition of adhesion
pIC50: −log10 of the molar value. Counter-ions that a name gives are not always drawn.
measure_name: pIC50

Solved cases below.
CC1(c2ccc(C(=N)N)cc2)C(=O)N(CC(=O)N[C@@H](CC(=O)O)C(=O)N[C@H](C(=O)O)c2ccccc2)C(=O)N1Cc1cccc2ccccc12 (mixture of isomers)    5.43
CC1(c2ccc(C(=N)N)cc2)C(=O)N(CC(=O)NC(CC(=O)O)c2ccccc2)C(=O)N1Cc1ccccc1 (centres unmarked) [Example 33, hydrochloride]    4.35
CC1(c2ccc(N)cc2)C(=O)N(CC(=O)N[C@@H](CC(=O)O)C(=O)N[C@H](C(=O)O)c2ccccc2)C(=O)N1Cc1ccccc1 (some centres unmarked)    5.52

A. CC1(c2ccc(C(=N)N)cc2)NC(=O)N(CC(=O)N[C@@H](CC(=O)O)C(=O)N[C@H](C(=O)O)c2ccccc2)C1=O (some centres unmarked)
B. C[C@]1(c2ccc(C(=N)N)cc2)C(=O)N(CC(=O)N[C@@H](CC(=O)O)C(=O)N[C@H](C(=O)O)c2ccccc2)C(=O)N1Cc1ccc2ccccc2c1
C. CC1(c2ccc(C(=N)N)cc2)C(=O)N(CC(=O)N[C@@H](CC(=O)O)C(=O)N[C@H](C(=O)O)c2ccccc2)C(=O)N1Cc1ccccc1-c1ccccc1 (mixture of isomers)
In: Ascending by pIC50, please: list the compounds accordingly. Sort the labels as requested; that list is your answer.
Out: A, C, B
(A: 3.85, C: 4.21, B: 6.55)

###

# system_name: VLA-4 integrins on human U937 cells (interaction between VCAM-1 and VLA-4) (Homo sapiens, UniProt P05556+P13612)
# Construct: the VLA-4 integrins, are offered in their natural form as surface molecules on human U937 cells; the partner hVCAM-1(1-3)-IgG came from the supernatant of transfected COS cells (ATCC CRL1651)
# assay_overview: U937/VCAM-1 cell adhesion test (adhesion of U937 cells to hVCAM-1(1-3)-IgG)
# run_conditions: concentration leading to 50% inhibition of adhesion
Structures can show the parent of a compound that is named as a salt.
measure_name: IC50 (µM)

COc1cc(OC)cc(C(CC(=O)O)NC(=O)CN2C(=O)N(Cc3ccccc3)C(C)(c3ccc(C(=N)N)cc3)C2=O)c1 (centres unmarked)    27.5

I. CC1(Cc2ccc(NC(=N)N)cc2)C(=O)N(CC(=O)N[C@@H](CC(=O)O)C(=O)N[C@H](C(=O)O)c2ccccc2)C(=O)N1Cc1ccccc1 (some centres unmarked)
II. C[C@]1(c2ccc(C(=N)N)cc2)C(=O)N(CC(=O)N[C@@H](CC(=O)O)C(=O)N[C@H](C(=O)O)c2ccccc2)C(=O)N1Cc1ccccc1
III. Cc1c(C)c(C)c(CN2C(=O)N(CC(=O)N[C@@H](CC(=O)O)C(=O)N[C@H](C(=O)O)c3ccccc3)C(=O)C2(C)c2ccc(C(=N)N)cc2)c(C)c1C (mixture of isomers)
In: Ascending by IC50, please: list the compounds accordingly. Sort the labels as requested; that list is your answer.
Out: II, III, I
(II: 0.22 µM, III: 79 µM, I: 125 µM)

1. CC1(c2ccc(C(=N)N)cc2)C(=O)N(CC(=O)NCCC(=O)O)C(=O)N1Cc1ccccc1 (racemic) [Example 34, hydrochloride]
2. CCN1C(=O)N(CC(=O)N[C@@H](CC(=O)O)C(=O)N[C@@H](C(=O)O)c2ccccc2)C(=O)[C@@H]1CCCNC(=N)N
In: Quick check, higher IC50 between 1 and 2 ? Reply with the label of the item you choose.
Out: 2
(2: 250 µM, 1: 175 µM)

I. CC1(c2ccc(C(=N)N)cc2)C(=O)N(CC(=O)N[C@@H](CC(=O)O)C(=O)N[C@H](C(=O)O)c2ccccc2)C(=O)N1Cc1ccccc1 (some centres unmarked)
II. COC(=O)[C@@H](NC(=O)[C@H](CC(=O)O)NC(=O)CN1C(=O)N(Cc2ccccc2)C(C)(c2ccc(C(=N)N)cc2)C1=O)c1ccccc1 (mixture of isomers)
III. CC1(c2ccc(CNC(=N)N)cc2)C(=O)N(CC(=O)N[C@@H](CC(=O)O)C(=O)N[C@H](C(=O)O)c2ccccc2)C(=O)N1Cc1ccccc1 (some centres unmarked)
IV. C[C@@]1(c2ccc(C(=N)N)cc2)C(=O)N(CC(=O)N[C@@H](CC(=O)O)C(=O)N[C@H](C(=O)O)c2ccccc2)C(=O)N1Cc1ccc2ccccc2c1
V. CC1(c2ccc(C(=N)N)cc2)C(=O)N(CC(=O)N[C@@H](CC(=O)O)C(=O)N[C@H](C(=O)O)c2ccccc2)C(=O)N1Cc1ccccc1CS(=O)(=O)c1ccccc1 (mixture of isomers)
In: Ascending by IC50, please: list the compounds accordingly. Sort the labels as requested; that list is your answer.
Out: IV, I, III, II, V

###

# system_name: VLA-4 integrins on human U937 cells (interaction between VCAM-1 and VLA-4) (Homo sapiens, UniProt P05556+P13612)
# Construct: the VLA-4 integrins, are offered in their natural form as surface molecules on human U937 cells; the partner hVCAM-1(1-3)-IgG came from the supernatant of transfected COS cells (ATCC CRL1651)
# assay_overview: U937/VCAM-1 cell adhesion test (adhesion of U937 cells to hVCAM-1(1-3)-IgG)
# run_conditions: concentration leading to 50% inhibition of adhesion
measure_name: IC50 (µM)

1. CN(C(=O)CN1C(=O)N(Cc2ccc(-c3ccccc3)cc2)C(C)(c2ccc(C(=N)N)cc2)C1=O)[C@@H](CC(=O)O)C(=O)N[C@H](C(=O)O)c1ccccc1 (stereo partly drawn) [Example 18]
2. CC1(c2ccc(C(=N)N)cc2)C(=O)N(CC(=O)NC(CC(=O)O)c2ccc3c(c2)OCCO3)C(=O)N1Cc1ccccc1 (stereo not drawn) [Example 58]
3. CC1(c2ccc(C(=N)N)cc2)C(=O)N(CC(=O)NC[C@H](NC(=O)OCc2ccccc2)C(=O)O)C(=O)N1Cc1ccccc1 (stereo partly drawn) [Example 46]
In: Give the descending IC50 ranking for the 3 compounds listed above. Sort the labels as requested; that list is your answer.
Out: 2, 3, 1

###

# system_name: VLA-4 integrins on human U937 cells (interaction between VCAM-1 and VLA-4) (Homo sapiens, UniProt P05556+P13612)
# Construct: the VLA-4 integrins, are offered in their natural form as surface molecules on human U937 cells; the partner hVCAM-1(1-3)-IgG came from the supernatant of transfected COS cells (ATCC CRL1651)
# assay_overview: U937/VCAM-1 cell adhesion test (adhesion of U937 cells to hVCAM-1(1-3)-IgG)
# run_conditions: concentration leading to 50% inhibition of adhesion
measure_name: IC50 (µM)

CC1(c2ccc(C(=N)N)cc2)C(=O)N(CC(=O)N[C@@H](CC(=O)O)C(=O)N[C@H](C(=O)O)c2ccccc2)C(=O)N1Cc1ccc([N+](=O)[O-])cc1 (mixture of isomers)    25

I. NCCC[C@H]1C(=O)N(CC(=O)N[C@@H](CC(=O)O)C(=O)N[C@H](C(=O)O)c2ccccc2)C(=O)N1Cc1ccccc1
II. CC1(c2ccc(C(=N)N)cc2)C(=O)N(CC(=O)N[C@@H](CC(=O)O)C(=O)N[C@H](C(=O)O)c2ccccc2)C(=O)N1Cc1cc(C(F)(F)F)cc(C(F)(F)F)c1 (mixture of isomers)
III. N=C(N)c1ccc(C2(Cc3ccccc3)C(=O)N(CC(=O)N[C@@H](CC(=O)O)C(=O)N[C@H](C(=O)O)c3ccccc3)C(=O)N2Cc2ccccc2)cc1 (some centres unmarked)
IV. CN(C(=O)CN1C(=O)N(Cc2ccccc2)C(C)(c2ccc(C(=N)N)cc2)C1=O)[C@@H](CC(=O)O)C(=O)N[C@H](C(=O)O)c1ccccc1 (mixture of isomers)
In: Sequence the entries by IC50, beginning with the highest number. Sort the labels as requested; that list is your answer.
Out: I, II, III, IV
